Biological target: T1, Formyl-Peptide Receptor 1 (UniProt P21462 1-350, limits assumed)
T1 sequence (looked up): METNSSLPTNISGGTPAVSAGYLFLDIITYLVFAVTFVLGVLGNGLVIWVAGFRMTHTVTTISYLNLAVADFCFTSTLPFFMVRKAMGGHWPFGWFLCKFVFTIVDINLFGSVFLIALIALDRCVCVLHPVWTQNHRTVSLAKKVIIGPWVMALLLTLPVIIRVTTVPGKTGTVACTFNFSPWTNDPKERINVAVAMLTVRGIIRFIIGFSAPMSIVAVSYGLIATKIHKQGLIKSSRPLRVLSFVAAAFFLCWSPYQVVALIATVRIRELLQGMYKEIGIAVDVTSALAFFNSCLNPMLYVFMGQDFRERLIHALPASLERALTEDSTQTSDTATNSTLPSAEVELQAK
Test: cell-based or functional assay
Bridges are numbered along the chain shown (N, C = ends). [ ]: non-standard residue; d: D form. hSer = N[C@@H](CCO)C(=O)O
result type: β-Arrestin IC50

*Q* # get_value(readout='β-Arrestin IC50', item= cyclo(YHKCHG[dP]WTICYE[hSer][dP]P) (disulfide 4-11; SMILES CC[C@H](C)[C@@H]1NC(=O)[C@H]([C@@H](C)O)NC(=O)[C@H](Cc2c[nH]c3ccccc23)NC(=O)[C@H]2CCCN2C(=O)CNC(=O)[C@H](Cc2c[nH]cn2)NC(=O)[C@@H]2CSSC[C@H](NC1=O)C(=O)N[C@@H](Cc1ccc(O)cc1)C(=O)N[C@@H](CCC(=O)O)C(=O)N[C@@H](CCO)C(=O)N1CCC[C@@H]1C(=O)N1CCC[C@H]1C(=O)N[C@@H](Cc1ccc(O)cc1)C(=O)N[C@@H](Cc1c[nH]cn1)C(=O)N[C@@H](CCCCN)C(=O)N2) [cyclo(-Tyr-His-Lys-Cys-His-Gly-^DPro-Trp-Thr-Ile-Cys-Tyr-Glu-Hse-^DPro-Pro-)] )
*A* 24 nM
